# STUDY SYSTEM: T1, Biotinylated human TSLP (human, biotinylated)
# T1 construct: also called hTSLP; thymic stromal lymphopoietin
# T1 sequence (chain, as listed by the source limits assumed): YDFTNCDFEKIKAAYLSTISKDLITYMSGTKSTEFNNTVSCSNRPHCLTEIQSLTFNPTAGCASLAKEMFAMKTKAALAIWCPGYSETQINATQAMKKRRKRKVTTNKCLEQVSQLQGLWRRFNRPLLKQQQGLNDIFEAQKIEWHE
# PROTOCOL DETAILS: SPR, biotinylated hTSLP on streptavidin chip
*1 amine or outer side, *2 acyl side, *3 side chain or, on linkers, in order; H or OH if unused. Bridges are numbered along the chain shown (N, C = ends). Where no end group is shown, it is not given here. [ ]: non-standard residue; d: D form. TATA = O=C(CC[*:1])N1CN(C(=O)CC[*:2])CN(C(=O)CC[*:3])C1; Lys(Me3) = C[N+](C)(C)CCCC[C@H](N)C(=O)O
OBSERVATION TYPE: Kd (nM)

ACDWHWEYDCWLSCA (linker 2-10-14 via TATA) [Example 199]	81
Ac-CQWLEDCW[Lys(Me3)]GFC (linker 1-7-12 via TATA; not fully specified (C-terminus)) [Example 81]	100
SPPCVWLDDCWRGFCA (linker 4-10-15 via TATA) [Example 73]	85
